biological target: FLK-1 receptor (Mus musculus, UniProt P35918); construct: expressed in transfected cells; host or cells: NIH3T3 C7#3; experiment: FLK-1 ELISA (kinase activity of the FLK-1 receptor in FLK-1/NIH3T3 cells, VEGF stimulated); assay type: cell-based
Sequence (P35918 20-1345): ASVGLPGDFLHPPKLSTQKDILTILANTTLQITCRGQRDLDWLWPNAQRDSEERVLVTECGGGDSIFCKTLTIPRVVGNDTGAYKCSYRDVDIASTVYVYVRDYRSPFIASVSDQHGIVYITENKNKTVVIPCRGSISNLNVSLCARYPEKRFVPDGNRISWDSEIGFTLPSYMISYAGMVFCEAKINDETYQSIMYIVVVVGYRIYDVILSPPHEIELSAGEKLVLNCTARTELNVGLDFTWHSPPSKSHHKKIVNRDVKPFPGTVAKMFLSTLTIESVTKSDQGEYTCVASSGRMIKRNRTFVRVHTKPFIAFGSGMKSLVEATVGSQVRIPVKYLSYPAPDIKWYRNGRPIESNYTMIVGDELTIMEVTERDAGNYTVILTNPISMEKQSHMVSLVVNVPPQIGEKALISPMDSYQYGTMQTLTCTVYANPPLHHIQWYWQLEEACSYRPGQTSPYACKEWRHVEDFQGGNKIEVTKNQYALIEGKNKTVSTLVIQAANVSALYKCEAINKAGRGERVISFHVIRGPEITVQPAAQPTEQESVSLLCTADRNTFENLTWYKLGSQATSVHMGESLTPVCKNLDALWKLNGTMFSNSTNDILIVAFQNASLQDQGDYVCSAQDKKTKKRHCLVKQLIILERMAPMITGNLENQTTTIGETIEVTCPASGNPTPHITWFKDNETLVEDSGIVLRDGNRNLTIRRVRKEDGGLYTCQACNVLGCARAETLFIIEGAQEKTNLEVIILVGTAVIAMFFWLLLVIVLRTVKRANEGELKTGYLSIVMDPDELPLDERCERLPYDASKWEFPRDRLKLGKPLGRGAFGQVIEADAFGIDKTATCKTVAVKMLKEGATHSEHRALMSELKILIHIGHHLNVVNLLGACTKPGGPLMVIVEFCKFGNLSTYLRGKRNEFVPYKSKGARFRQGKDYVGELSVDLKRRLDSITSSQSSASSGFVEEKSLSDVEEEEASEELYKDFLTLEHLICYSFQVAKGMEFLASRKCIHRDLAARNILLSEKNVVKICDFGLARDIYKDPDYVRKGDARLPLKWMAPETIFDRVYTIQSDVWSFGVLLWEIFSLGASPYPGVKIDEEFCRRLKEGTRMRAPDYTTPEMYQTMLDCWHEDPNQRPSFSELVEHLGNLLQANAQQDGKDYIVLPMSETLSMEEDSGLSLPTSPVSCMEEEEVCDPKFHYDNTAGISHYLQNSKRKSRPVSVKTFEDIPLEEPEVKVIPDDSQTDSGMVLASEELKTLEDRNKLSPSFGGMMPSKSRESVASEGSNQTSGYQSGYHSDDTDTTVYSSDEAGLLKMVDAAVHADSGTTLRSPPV
Exercise: for every item that follows, state its recorded Fik Kinase %Inhibition.
Express the reported value numerically, then name its unit.

Example entries begin here.
> print(dat)
                                 cpd.smiles  observed.result
1  O=C1Nc2ccc(F)cc2C1=C1C(=O)Nc2c(Br)cc(Br)cc21            -4.0%
2    O=C1Nc2ccc(I)cc2C1=Cc1cc(O)c(O)c(Br)c1            18.7%
3  Cc1cc(C=C2C(=O)Nc3ccc(S(=O)(=O)Nc4ccc(C(F)(F)F)cc4)cc32)cc(C(C)(C)C)c1O             8.1%

Here are 4 compounds. What values of Fik Kinase %Inhibition were reported for them?
1. CNS(=O)(=O)c1ccc2c(c1)C(=Cc1cc(C(C)(C)C)cc(C(C)(C)C)c1O)C(=O)N2
2. CNS(=O)(=O)c1ccc2c(c1)C(=Cc1cc(OC)cc(OC)c1)C(=O)N2
3. Cn1cccc1C=C1C(=O)Nc2ccc(S(=O)(=O)N3CCOCC3)cc21
4. CC(C)(C)c1cc(C=C2C(=O)Nc3ccc(S(=O)(=O)N4CCOCC4)cc32)cc(C(C)(C)C)c1OCc1ccccc1

output:
["14.8%", "6.8%", "-0.1%", "26.2%"]

Measured Fik Kinase %Inhibition, COc1ccc(OC)c(C=C2C(=O)Nc3ccc(S(=O)(=O)Nc4ccc(C(F)(F)F)cc4)cc32)c1 : 5.4%

====

Exercise: for every item that follows, state its recorded Fik Kinase %Inhibition.
target: FLK-1 receptor (Mus musculus, UniProt P35918); construct: expressed in transfected cells; host or cells: NIH3T3 C7#3; assay: FLK-1 ELISA (kinase activity of the FLK-1 receptor in FLK-1/NIH3T3 cells, VEGF stimulated); type: cell-based
Numbers only, in %.

Example entries begin here.
> print(dat)
                                   molecule         measured.metric  measure.unit  observed.result
1  COc1c(C)cc(C=C2C(=O)Nc3c(Br)cc(Br)cc32)cc1C  Fik Kinase %Inhibition             %            -16.6
2  O=C1Nc2c(Br)cc(Br)cc2C1=Cc1ccc(O)c([N+](=O)[O-])c1  Fik Kinase %Inhibition             %             -7.8
3  C=C(C)C1CC=C(C=C2C(=O)Nc3ccc(Br)c(C)c32)CC1 (centres unmarked)  Fik Kinase %Inhibition             %             10.5
4  COc1cc(Br)cc(C=C2C(=O)Nc3ccc(Br)c(C)c32)c1O  Fik Kinase %Inhibition             %            -28.5

Next item in the queue.
Measured Fik Kinase %Inhibition, COc1cc(C=C2C(=O)Nc3ccc(Br)c(C)c32)cc2c1OCO2 : -10.1

====

test system: MET; experiment: MET biochemical kinase assay; parameters: species or system human; concentration or dose not given beside the values
measured.metric: Met Kinase % Inhibition (%)
Answers are plain numbers, in %.

Example entries begin here.
> print(dat)
                                 cpd.smiles  measure.unit  observed.result
1  O=C1Nc2ccc(I)cc2C1=Cc1c(Br)cnn1-c1ccc(Cl)cc1             %             69.9
2     CCc1ccc(C=C2C(=O)Nc3ccc(Br)c(C)c32)s1             %             36.7
3  O=C1Nc2c(Br)cc(Br)cc2C1=Cc1ccc([N+](=O)[O-])o1             %             58.9
4  CNS(=O)(=O)c1ccc2c(c1)C(=Cc1c[nH]c(=O)[nH]c1=O)C(=O)N2             %             44.2

Measured Met Kinase % Inhibition, CNS(=O)(=O)c1ccc2c(c1)C(=Cc1cc(Cl)c(OCc3ccccc3)c(C(C)(C)C)c1)C(=O)N2 : 33.1

====

tested on: MET; assay: MET biochemical kinase assay; parameters: species or system human; concentration or dose not given beside the values
Would you mind sorting the entries by Met Kinase % Inhibition according to these classes? low (below 20%), moderate (20% to below 40%), high (40% or more)

> print(dat)
                                   compound  assigned.category
1  CCn1c2ccccc2c2cc(C=C3C(=O)Nc4c(Br)cc(Br)cc43)ccc21           moderate
2  CNS(=O)(=O)c1ccc2c(c1)C(=Cc1cccn1-c1ccc(Cl)cc1)C(=O)N2                low
3  CNS(=O)(=O)c1ccc2c(c1)C(=Cc1ccc(Br)cc1)C(=O)N2                low
4  CNS(=O)(=O)c1ccc2c(c1)C(=Cc1c(F)cc(F)cc1F)C(=O)N2                low
5  CNS(=O)(=O)c1ccc2c(c1)C(=Cc1c(C)cc(O)cc1O)C(=O)N2               high

input: Band of CC(C)(C)c1cc(C=C2C(=O)Nc3ccc(CCCl)cc32)cc(C(C)(C)C)c1OCc1ccccc1 ?
output: low

input: Band of O=C1Nc2c(Br)cc(Br)cc2C1=Cc1cc(Cl)cc(Cl)c1O ?
output: high

input: Band of Cc1cc(C=C2C(=O)Nc3ccc(CCCl)cc32)ccc1O ?
output: high

input: Band of Cc1cc(C=C2C(=O)Nc3ccc(S(=O)(=O)N4CCOCC4)cc32)cc(C)c1OCc1ccccc1 ?
output: low

input: Band of O=C1Nc2ccc(I)cc2C1=Cc1cc(O)c(O)c(Br)c1 ?
output: high

input: Band of CNS(=O)(=O)c1ccc2c(c1)C(=Cc1ccc(SC)s1)C(=O)N2 ?
output: moderate

input: Band of O=C1Nc2c(Br)cc(Br)cc2C1=Cc1cc(Cl)cc(Br)c1O ?
output: high

input: Band of O=C1Nc2ccc(CCCl)cc2C1=Cc1ccccc1Br ?
output: high

input: Band of CC(C)(C)c1cc(C=C2C(=O)Nc3ccc(S(=O)(=O)Nc4ccc(C(F)(F)F)cc4)cc32)cc([N+](=O)[O-])c1O ?
output: high

input: Band of O=C1Nc2ccc(I)cc2C1=CC1C=CCCC1 (stereo not drawn) ?
output: moderate

input: Band of CNS(=O)(=O)c1ccc2c(c1)C(=Cc1c(O)cc(C)cc1OC)C(=O)N2 ?
output: moderate

====

tested on: MET; assay: MET biochemical kinase assay; design: species or system human; concentration or dose not given beside the values
measured.metric: Met Kinase % Inhibition (%)
Answers are plain numbers, in %.

Example entries begin here.
> print(dat)
                                   compound  observed.result
1  C=C(C)C1CC=C(C=C2C(=O)Nc3ccc(I)cc32)CC1 (stereo not drawn)             71.0
2  CNS(=O)(=O)c1ccc2c(c1)C(=Cc1ccc(C(F)(F)F)cc1)C(=O)N2             41.0

Here are 4 compounds. What values of Met Kinase % Inhibition were reported for them?
1. COc1c(O)ccc(C=C2C(=O)Nc3ccc(Br)c(C)c32)c1[N+](=O)[O-]
2. CNS(=O)(=O)c1ccc2c(c1)C(=Cc1ccc(O)cc1)C(=O)N2
3. Cc1c(O)ccc(C=C2C(=O)Nc3ccc(Br)c(C)c32)c1O
4. Cc1c(Br)ccc2c1C(=Cc1c(Br)cnn1-c1ccc(Cl)cc1)C(=O)N2

output:
1: 35.1; 2: 41.5; 3: 38.2; 4: -0.6

Here are 8 compounds. What values of Met Kinase % Inhibition were reported for them?
1. COc1ccc(C=C2C(=O)Nc3ccc(S(=O)(=O)Nc4ccc(C(F)(F)F)cc4)cc32)cc1OC
2. CNS(=O)(=O)c1ccc2c(c1)C(=Cc1cc(Br)cc(OC)c1O)C(=O)N2
3. O=CN1CCN(c2ccc(C=C3C(=O)Nc4ccc(CCCl)cc43)cc2)CC1
4. COc1cccc(OC)c1C=C1C(=O)Nc2ccc(I)cc21
5. CC(C)(C)c1cc(C=C2C(=O)Nc3ccc(I)cc32)cc(Cl)c1O
6. COC(=O)Cc1c(Cl)[nH]c(C=C2C(=O)Nc3ccc(Br)c(C)c32)c1C(=O)OC
7. Cc1c(Br)ccc2c1C(=Cc1coc3ccccc3c1=O)C(=O)N2
8. Cc1c(O)ccc(C=C2C(=O)Nc3c(Br)cc(Br)cc32)c1O

output:
1. 46.7
2. 80.0
3. 39.7
4. 74.4
5. 72.0
6. 24.1
7. 36.7
8. 67.7
